So I've got a bunch of molecules here, and I need their AC50 values.
Assay system: human PAH with the R408W mutation (A375 R408W cells) (Homo sapiens, UniProt P00439, R408W)
Construct: expressed in transfected cells
Test details: Cell Based Phenylalanine Flux Assay
Condition details: A375 cells expressing R408W PAH; 24 hrs with compound, then 20 μM sepiapterin and 800 μM 13C9,15N-Phenylalanine for 4 hours; 13C-Tyrosine by LC-MS; average where tested multiple times

Which AC50 value is on record for CC(C)(O)c1cc(C(=O)N2CCc3[nH]cnc3C2c2nc3cc(F)ccc3o2)on1 (stereo not drawn) ?
1 to 5 µM

Entry under review: O=C(c1cnn2cc(N3CCC(O)CC3)ccc12)N1CCc2[nH]cnc2C1c1nc2c(F)cccc2o1 (stereo not drawn) . Reported AC50?
≥ 5 µM

// lookup AC50 for CC(C)(O)c1noc(C(=O)N2CCc3[nH]cnc3C2c2nc3c(F)cccc3o2)n1 (stereo not drawn)
≥ 5 µM

Name the reported AC50 value associated with the molecule Cc1ccc2oc(C3c4nc[nH]c4CCN3C(=O)c3cnn4cc(CN(C)C)ccc34)nc2c1 (stereo not drawn)
1 to 5 µM

Need AC50, item O=C(c1nncn1C1CC1)N1CCc2[nH]cnc2C1c1nc2cc(F)ccc2o1 (stereo not drawn)
≥ 5 µM

Which AC50 value is on record for N#Cc1ccc2c(C(=O)N3CCc4[nH]cnc4C3c3nc4cc(F)ccc4o3)cnn2c1 (stereo not drawn) ?
1 to 5 µM

Which AC50 reading was recorded for the molecule O=C(c1nnc(N2CCOCC2)o1)N1CCc2[nH]cnc2C1c1nc2cc(F)ccc2o1 (stereo not drawn) ?
1 to 5 µM

Requested field: AC50. Item: NCc1ccc2c(C(=O)N3CCc4[nH]cnc4C3c3nc4cc(F)ccc4o3)cnn2c1 (stereo not drawn)
≥ 5 µM

For the molecule CC(C)(O)c1nc(C(F)F)c(C(=O)N2CCc3[nH]cnc3C2c2nc3cc(C#N)ccc3o2)o1 (stereo not drawn) , what AC50 is on record?
1 to 5 µM

====

Give measured AC50 for each item. Keep answers brief.
Assay system: human PAH with the R408W mutation (A375 R408W cells) (Homo sapiens, UniProt P00439, R408W)
Construct: expressed in transfected cells
Test details: Cell Based Phenylalanine Flux Assay
Condition details: A375 R408W cells; 24 hrs with compound, then 20 μM sepiapterin and 800 μM 13C9,15N-Phenylalanine for 4 hours; 13C-Tyrosine by LC-MS; average where tested multiple times

Query (molecule): Cc1ccc2nc([C@H]3c4nc[nH]c4CCN3C(=O)c3ocnc3C(F)(F)F)oc2c1 ; field requested: AC50
≤ 500 nM

Query (molecule): O=C(c1nnc(-c2ccn(C(F)F)n2)o1)N1CCc2[nH]cnc2[C@@H]1c1nc2ccccc2o1 ; field requested: AC50
1000 to 5000 nM

Please report the recorded AC50 for COc1cccc2nc([C@@H]3c4nc[nH]c4CCN3C(=O)c3cc(C(F)F)nn3C)oc12 .
≤ 500 nM

Consider the molecule O=C(c1ocnc1C(F)F)N1CCc2[nH]cnc2[C@H]1c1nc2cc(C(F)(F)F)ccc2o1 and give its measured AC50.
≤ 500 nM

Endpoint output: AC50 of O=C(c1ocnc1C(F)(F)F)N1Cc2[nH]cnc2[C@H]1c1nc2ccccc2o1 . Value?
1000 to 5000 nM

Look up AC50: CC(C)(O)c1nc(Cl)c(C(=O)N2CCc3[nH]cnc3[C@@H]2c2nc3cccc(F)c3o2)o1
1000 to 5000 nM

// returns reported AC50 for input Cn1ccc(-c2nc(C(F)(F)F)c(C(=O)N3CCc4[nH]cnc4[C@@H]3c3nc4cc(F)ccc4o3)o2)n1
1000 to 5000 nM

Dear colleague, I am looking for the recorded AC50 of the following molecule: O=C(CCc1nccs1)N1CCc2[nH]cnc2[C@H]1c1nc2c(F)cccc2o1
500 to 1000 nM

What value of AC50 has been reported for the following molecule? CC1CN(C(=O)c2ocnc2C(F)F)[C@@H](c2nc3cccc(F)c3o2)c2nc[nH]c21 (single isomer, unassigned) [Example 806]
1000 to 5000 nM

So what does the record say about AC50 for CC(C)(O)c1nc(C(F)F)c(C(=O)N2CCc3[nH]cnc3[C@@H]2c2nc3cccc(F)c3o2)o1 ?
≤ 500 nM

Query (molecule): O=C(c1nnc(-c2c(F)cccc2F)o1)N1CCc2[nH]cnc2[C@H]1c1nc2cc(F)ccc2o1 ; field requested: AC50
≤ 500 nM

State the recorded AC50 for this entry: COc1cccc2oc([C@@H]3c4nc[nH]c4CCN3C(=O)c3nnc(-c4ccn(C)n4)o3)nc12
≤ 500 nM

Could you share which AC50 value was measured for Cc1ncoc1C(=O)N1CCc2[nH]cnc2[C@@H]1c1nc2c(F)cccc2o1 ?
1000 to 5000 nM

Requested field: AC50. Item: COc1cccc2oc([C@H]3c4nc[nH]c4CCN3C(=O)c3nnc(-c4ccccn4)o3)nc12
1000 to 5000 nM

Query (molecule): O=C(c1nnc(-c2ccccn2)o1)N1CCc2[nH]cnc2[C@H]1c1nc2ccccc2o1 ; field requested: AC50
≤ 500 nM

====

Assay system: human PAH with the R408W mutation (A375 R408W cells) (Homo sapiens, UniProt P00439, R408W)
Construct: expressed in transfected cells
Sequence (P00439 1-452 R408W): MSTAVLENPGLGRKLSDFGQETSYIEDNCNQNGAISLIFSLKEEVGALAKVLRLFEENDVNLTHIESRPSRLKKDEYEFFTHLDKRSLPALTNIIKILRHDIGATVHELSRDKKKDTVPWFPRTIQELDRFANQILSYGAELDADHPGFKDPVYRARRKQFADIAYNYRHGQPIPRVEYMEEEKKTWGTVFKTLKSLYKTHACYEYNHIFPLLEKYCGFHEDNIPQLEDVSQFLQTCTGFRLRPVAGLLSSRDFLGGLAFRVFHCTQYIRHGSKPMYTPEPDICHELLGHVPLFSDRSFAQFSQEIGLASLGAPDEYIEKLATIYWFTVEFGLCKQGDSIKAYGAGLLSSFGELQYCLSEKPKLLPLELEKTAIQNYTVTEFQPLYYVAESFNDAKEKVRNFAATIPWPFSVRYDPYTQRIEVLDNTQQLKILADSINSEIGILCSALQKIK
Test details: Cell Based Phenylalanine Flux Assay
Condition details: A375 R408W cells; 24 hrs with compound, then 20 μM sepiapterin and 800 μM 13C9,15N-Phenylalanine for 4 hours; 13C-Tyrosine by LC-MS; average where tested multiple times
Value type: AC50

Can you share its AC50? I mean this molecule: O=C(c1oc(N2CCOCC2)nc1C(F)F)N1CCc2[nH]cnc2[C@@H]1c1nc2cc(F)ccc2o1
1 to 5 µM

Could you tell me which AC50 is on file for Cn1cc(-c2nnc(C(=O)N3Cc4[nH]cnc4[C@H]3c3nc4ccccc4o3)o2)cn1 ?
≥ 5 µM

Name the reported AC50 value associated with the molecule O=C(c1ccnn1C1CC1)N1CCc2[nH]cnc2[C@H]1c1nc2ccccc2o1
≤ 0.5 µM

Could you tell me which AC50 is on file for O=C(c1oc(N2CCC(F)CC2)nc1C(F)F)N1CCc2[nH]cnc2[C@H]1c1nc2cccc(F)c2o1 ?
≤ 0.5 µM

Entry under review: O=C(c1nnc(-c2cnn(C(F)F)c2)o1)N1CCc2[nH]cnc2[C@@H]1c1nc2c(F)ccc(F)c2o1 . Reported AC50?
0.5 to 1 µM

Using the record for C[C@H](O)c1nc(C(F)F)c(C(=O)N2CCc3[nH]cnc3[C@H]2c2nc3cccc(F)c3o2)o1 , report its AC50.
≤ 0.5 µM

Give its AC50 value. Item: Cc1ccc2c(C(=O)N3CCc4[nH]cnc4[C@H]3c3nc4cccc(F)c4o3)cnn2c1
≤ 0.5 µM

Record request: AC50 value, item O=C(c1oc(N2CCC(F)CC2)nc1C(F)F)N1CCc2[nH]cnc2[C@@H]1c1nc2cc(F)ccc2o1
1 to 5 µM

// returns reported AC50 for input Cc1ccc2oc([C@@H]3c4nc[nH]c4CCN3C(=O)c3oc(-c4cn(C)cn4)nc3C(F)F)nc2c1
≤ 0.5 µM

====

Assay system: human PAH with the R408W mutation (A375 R408W cells) (Homo sapiens, UniProt P00439, R408W)
Construct: expressed in transfected cells
Sequence (P00439 1-452 R408W): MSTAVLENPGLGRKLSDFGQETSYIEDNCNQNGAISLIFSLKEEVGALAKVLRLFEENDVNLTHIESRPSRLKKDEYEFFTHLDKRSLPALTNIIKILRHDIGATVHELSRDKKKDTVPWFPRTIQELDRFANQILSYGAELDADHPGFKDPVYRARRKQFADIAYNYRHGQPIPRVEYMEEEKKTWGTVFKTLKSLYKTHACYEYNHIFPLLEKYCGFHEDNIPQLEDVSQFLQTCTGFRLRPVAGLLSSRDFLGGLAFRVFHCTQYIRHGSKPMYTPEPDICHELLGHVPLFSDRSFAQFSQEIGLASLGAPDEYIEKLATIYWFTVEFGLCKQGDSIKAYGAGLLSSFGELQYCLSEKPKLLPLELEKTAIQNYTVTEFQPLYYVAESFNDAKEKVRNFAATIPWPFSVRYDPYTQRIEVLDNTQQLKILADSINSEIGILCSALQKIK
Test details: Cell Based Phenylalanine Flux Assay
Condition details: A375 cells expressing R408W PAH; 24 hrs with compound, then 20 μM sepiapterin and 800 μM 13C9,15N-Phenylalanine for 4 hours; 13C-Tyrosine by LC-MS; average where tested multiple times
Value type: AC50

Tell me the measured AC50 of O=C(c1nnc(-c2cn[nH]c2)o1)N1CCc2[nH]cnc2C1c1nc2cc(F)ccc2o1 (stereo not shown) , please.
1 to 5 µM

For the compound shown here, Cc1ccc2oc(C3c4nc[nH]c4CCN3C(=O)c3nnc(C)o3)nc2c1 (stereo not shown) , give the reported AC50.
≥ 5 µM

Entry O=C(c1ccnn1-c1ccccn1)N1CCc2[nH]cnc2C1c1nc2cc(F)ccc2o1 (stereo not shown) has what AC50?
1 to 5 µM

What does the data say about its AC50? Entry: O=C(c1cnco1)N1CCc2[nH]cnc2C1c1nc2cc(F)ccc2o1 (stereo not shown)
≥ 5 µM

What measured AC50 goes with O=C(Cc1cnn2ccccc12)N1CCc2[nH]cnc2C1c1nc2cc(F)ccc2o1 (stereo not shown) ?
1 to 5 µM

Any idea what AC50 was measured for O=C(c1cnn2cc(CCN3CC(F)C3)ccc12)N1CCc2[nH]cnc2C1c1nc2cc(F)ccc2o1 (stereo not shown) ?
≥ 5 µM

Given the compound CN1CCN(c2nnc(C(=O)N3CCc4[nH]cnc4C3c3nc4cc(F)ccc4o3)o2)CC1 (stereo not shown) , what is its reported AC50?
1 to 5 µM

Data request, read-out AC50, for O=C(c1cnco1)N1CCc2[nH]cnc2C1c1nc2c(F)cccc2o1 (stereo not shown)
1 to 5 µM

What does the record list as AC50 for CNCCc1ccc2c(C(=O)N3CCc4[nH]cnc4C3c3nc4cc(F)ccc4o3)cnn2c1 (stereo not shown) ?
≥ 5 µM

# lookup: AC50 of Cc1cccc2nc(C3c4nc[nH]c4CCN3C(=O)c3cc(C(C)(C)C)nn3C)oc12 (stereo not shown)
1 to 5 µM

Values compiled from patent US20250171437A1.
